- assay: Bidirectional permeability assay (Caco-2 cells)
- Type: in vitro ADME
- measurement.parameters: human, pH 7.4, Caco-2 monolayers, absorptive direction (A2B), FaSSIF donor buffer
observed.property: Papp A→B at 120 min, 10 µM (×10⁻⁶ cm/s)

Solved entries:
CCCCC1(CCCC)CN(c2ccccc2)c2cc(SC)c(OC(C)CC(=O)O)cc2S(=O)(=O)N1 (stereo not drawn) [Example 8]	9.5
CCCCC1(CC)CN(c2ccccc2)c2cc(N(C)C)c(OCCC(=O)O)cc2S(=O)(=O)N1 (racemic) [Example 11]	13.1
CCCCC1(CCCC)CN(c2ccccc2)c2cc(SC)c(OCC(O)C(=O)O)cc2S(=O)(=O)N1 (single isomer, unassigned) [Example 7]	0.4
CCCCC1(CC)CN(c2ccccc2)c2cc(N(C)C)c(OCCC(=O)O)cc2S(=O)(=O)N1 (single isomer, unassigned) [Example 12]	14.2
CCCCC1(CCCC)CN(c2ccccc2)c2cc(SC)c(OCC(O)C(=O)O)cc2S(=O)(=O)N1 (racemic) [Example 5]	1
CCCCC1(CCCC)CN(c2ccccc2)c2cc(SC)c(OCCC(=O)O)cc2S(=O)(=O)N1 [Example 1]	9.2
CCCCC1(CCCC)CN(c2ccccc2)c2cc(Cl)c(OCCC(=O)O)cc2S(=O)(=O)N1 [Example 9]	10

P: CCCCC1(CC)CN(c2ccccc2)c2cc(SC)c(OCCC(=O)O)cc2S(=O)(=O)N1 (single isomer, unassigned) [Example 4]
Q: CCCCC1(CCCC)CN(c2ccc(O)cc2)c2cc(SC)c(OCCC(=O)O)cc2S(=O)(=O)N1 [Example 10]
Q) Hi team, can someone confirm which has the larger Papp A→B at 120 min, 10 µM: P or Q ? Thanks. Mark your selection by writing its label.
A) P
(P: 7.6 ×10⁻⁶ cm/s, Q: 2.1 ×10⁻⁶ cm/s)

* * *

- tgt: human IBAT (Homo sapiens, UniProt Q12908)
- Construct: Puromycin-selected IBAT-overexpressing cells
- Sequence (Q12908 whole entry): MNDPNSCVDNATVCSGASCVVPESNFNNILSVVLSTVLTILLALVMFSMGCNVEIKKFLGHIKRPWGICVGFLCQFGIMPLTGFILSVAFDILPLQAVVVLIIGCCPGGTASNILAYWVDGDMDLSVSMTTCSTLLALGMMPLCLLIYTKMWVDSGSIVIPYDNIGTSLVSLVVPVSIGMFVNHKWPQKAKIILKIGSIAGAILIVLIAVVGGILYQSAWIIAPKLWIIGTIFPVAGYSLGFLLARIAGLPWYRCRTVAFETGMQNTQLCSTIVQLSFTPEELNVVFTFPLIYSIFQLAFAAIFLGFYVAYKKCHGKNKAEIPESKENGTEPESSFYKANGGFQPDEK
- assay: IBAT (h/m) assay, human IBAT-overexpressing cells, 3H-taurocholic acid uptake
- measurement.parameters: 0.25 μM 3H-taurocholic acid + 5 μM cold taurocholic acid, 20 minutes, read-out: hIBAT IC50
observed.property: IC50 (nM)

Here are 4 molecules together with their reported answers.
CCCCC1(CCCC)CN(c2ccccc2)c2cc(SC)c(OCC(O)C(=O)O)cc2S(=O)(=O)N1 (racemic) [Example 5]	5
CCCCC1(CC)CN(c2ccccc2)c2cc(SC)c(OCCC(=O)O)cc2S(=O)(=O)N1 (single isomer, unassigned) [Example 4]	2
CCCCC1(CCCC)CN(c2ccccc2)c2cc(SC)c(OCC(O)C(=O)O)cc2S(=O)(=O)N1 (single isomer, unassigned) [Example 6]	14
CCCCC1(CCCC)CN(c2ccccc2)c2cc(Cl)c(OCCC(=O)O)cc2S(=O)(=O)N1	21

I: CCCCC1(CC)CN(c2ccccc2)c2cc(N(C)C)c(OCCC(=O)O)cc2S(=O)(=O)N1 (single isomer, unassigned) [Example 13]
II: CCCCC1(CCCC)CN(c2ccccc2)c2cc(SC)c(OCC(O)C(=O)O)cc2S(=O)(=O)N1 (single isomer, unassigned) [Example 7]
III: CCCCC1(CC)CN(c2ccccc2)c2cc(SC)c(OCCC(=O)O)cc2S(=O)(=O)N1 (racemic) [Example 2]
Q) Please produce an ascending ranking of these molecules based on IC50. Answer with the labels in sequence, matching the requested order.
A) II, III, I

* * *

- assay: Bioavailability studies in rats
- Format: in vivo
- measurement.parameters: male, Wistar, plasma; rat; 1 mg/kg intravenous vs 10 mg/kg oral
observed.property: bioavailability (%)
# output: bare number, implied unit %

Q) State the recorded bioavailability for this entry: CCCCC1(CC)CN(c2ccccc2)c2cc(SC)c(OCCC(=O)O)cc2S(=O)(=O)N1 (single isomer, unassigned)
A) 90

* * *

- tgt: human LBAT (Homo sapiens, UniProt Q14973)
- Construct: Geneticin-selected LBAT-overexpressing cells
- assay: LBAT (h/m) assay, human LBAT-overexpressing cells, 3H-taurocholic acid uptake
- measurement.parameters: 0.3 μM 3H-taurocholic acid + 7.5 μM cold taurocholic acid, 20 minutes, read-out: hLBAT IC50
observed.property: IC50 (µM)

The cases that follow already have their IC50 on record.
CCCCC1(CCCC)CN(c2ccccc2)c2cc(SC)c(OCC(O)C(=O)O)cc2S(=O)(=O)N1 (single isomer, unassigned) [Example 6]	3.66
CCCCC1(CCCC)CN(c2ccccc2)c2cc(SC)c(OCC(O)C(=O)O)cc2S(=O)(=O)N1 (racemic) [Example 5]	1.88
CCCCC1(CCCC)CN(c2ccccc2)c2cc(Cl)c(OCCC(=O)O)cc2S(=O)(=O)N1 [Example 9]	1.62
CCCCC1(CCCC)CN(c2ccccc2)c2cc(SC)c(OC(C)CC(=O)O)cc2S(=O)(=O)N1 (centres unmarked) [Example 8]	2.63
CCCCC1(CC)CN(c2ccccc2)c2cc(SC)c(OCCC(=O)O)cc2S(=O)(=O)N1 (single isomer, unassigned) [Example 3]	0.283

A: CCCCC1(CC)CN(c2ccccc2)c2cc(N(C)C)c(OCCC(=O)O)cc2S(=O)(=O)N1 (single isomer, unassigned) [Example 12]
B: CCCCC1(CCCC)CN(c2ccc(O)cc2)c2cc(SC)c(OCCC(=O)O)cc2S(=O)(=O)N1 [Example 10]
Q) Between A and B , whose recorded IC50 is greater? Kindly state the label of the option you pick.
A) B

a: CCCCC1(CC)CN(c2ccccc2)c2cc(N(C)C)c(OCCC(=O)O)cc2S(=O)(=O)N1 (racemic) [Example 11]
b: CCCCC1(CC)CN(c2ccccc2)c2cc(N(C)C)c(OCCC(=O)O)cc2S(=O)(=O)N1 (single isomer, unassigned) [Example 13]
c: CCCCC1(CC)CN(c2ccccc2)c2cc(SC)c(OCCC(=O)O)cc2S(=O)(=O)N1 (racemic) [Example 2]
d: CCCCC1(CC)CN(c2ccccc2)c2cc(SC)c(OCC(N)C(=O)O)cc2S(=O)(=O)N1 (centres unmarked) [Example 14]
Q) Could you please order the items by IC50, going from the lowest number to the highest? Your task in answering is to list the labels in the requested order.
A) d, c, a, b

* * *

- tgt: human IBAT (Homo sapiens, UniProt Q12908)
- Construct: Puromycin-selected IBAT-overexpressing cells
- assay: IBAT (h/m) assay, human IBAT-overexpressing cells, 3H-taurocholic acid uptake
- measurement.parameters: 0.25 μM 3H-taurocholic acid + 5 μM cold taurocholic acid, 20 minutes, read-out: hIBAT IC50
pIC50: −log10 of the molar value.
observed.property: pIC50

Field: example entries. Status: answers known.
CCCCC1(CC)CN(c2ccccc2)c2cc(SC)c(OCC(N)C(=O)O)cc2S(=O)(=O)N1 (stereo not shown)	8.22
CCCCC1(CC)CN(c2ccccc2)c2cc(SC)c(OCCC(=O)O)cc2S(=O)(=O)N1 (single isomer, unassigned) [Example 3]	7.64
CCCCC1(CCCC)CN(c2ccc(O)cc2)c2cc(SC)c(OCCC(=O)O)cc2S(=O)(=O)N1	8.70
CCCCC1(CC)CN(c2ccccc2)c2cc(N(C)C)c(OCCC(=O)O)cc2S(=O)(=O)N1 (single isomer, unassigned) [Example 12]	8.52
CCCCC1(CCCC)CN(c2ccccc2)c2cc(SC)c(OCCC(=O)O)cc2S(=O)(=O)N1	8.15

1: CCCCC1(CC)CN(c2ccccc2)c2cc(N(C)C)c(OCCC(=O)O)cc2S(=O)(=O)N1 (racemic) [Example 11]
2: CCCCC1(CCCC)CN(c2ccccc2)c2cc(SC)c(OC(C)CC(=O)O)cc2S(=O)(=O)N1 (stereo not shown)
Q) Which is greater in pIC50, the first item 1 or the second item 2 ? # respond with the chosen item's label
A) 1

* * *

- assay: Bioavailability studies in mice
- Format: in vivo, mice (C57BL/6 or CD1)
- measurement.parameters: male, mouse, plasma; CD1 mice; 1 mg/kg intravenous vs 10 mg/kg oral
observed.property: bioavailability (%)

CCCCC1(CC)CN(c2ccccc2)c2cc(SC)c(OCCC(=O)O)cc2S(=O)(=O)N1 (single isomer, unassigned)	45
CCCCC1(CCCC)CN(c2ccccc2)c2cc(SC)c(OCCC(=O)O)cc2S(=O)(=O)N1	59

* * *

- tgt: human LBAT (Homo sapiens, UniProt Q14973)
- Construct: Geneticin-selected LBAT-overexpressing cells
- Sequence (Q14973 1-349): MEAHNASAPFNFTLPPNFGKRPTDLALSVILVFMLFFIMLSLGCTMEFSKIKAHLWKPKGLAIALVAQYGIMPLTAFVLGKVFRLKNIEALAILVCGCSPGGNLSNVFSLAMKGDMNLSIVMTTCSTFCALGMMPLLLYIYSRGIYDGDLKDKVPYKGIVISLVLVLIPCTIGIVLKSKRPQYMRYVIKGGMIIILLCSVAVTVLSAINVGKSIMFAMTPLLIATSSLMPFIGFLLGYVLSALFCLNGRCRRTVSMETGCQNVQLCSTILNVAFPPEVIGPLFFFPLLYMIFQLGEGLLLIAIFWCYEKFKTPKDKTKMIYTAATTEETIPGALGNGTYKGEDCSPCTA
- assay: LBAT (h/m) assay, human LBAT-overexpressing cells, 3H-taurocholic acid uptake
- measurement.parameters: 0.3 μM 3H-taurocholic acid + 7.5 μM cold taurocholic acid, 20 minutes, read-out: hLBAT IC50
observed.property: IC50 (µM)

CCCCC1(CC)CN(c2ccccc2)c2cc(SC)c(OCCC(=O)O)cc2S(=O)(=O)N1 (single isomer, unassigned) [Example 4]	3.65
CCCCC1(CCCC)CN(c2ccccc2)c2cc(SC)c(OCC(O)C(=O)O)cc2S(=O)(=O)N1 (single isomer, unassigned) [Example 7]	2.22
CCCCC1(CCCC)CN(c2ccccc2)c2cc(SC)c(OCCC(=O)O)cc2S(=O)(=O)N1	2.91
